# credit: patent US7674819B2

# assayTarget: hAR (Homo sapiens)
# Sequence (P10275 1-920): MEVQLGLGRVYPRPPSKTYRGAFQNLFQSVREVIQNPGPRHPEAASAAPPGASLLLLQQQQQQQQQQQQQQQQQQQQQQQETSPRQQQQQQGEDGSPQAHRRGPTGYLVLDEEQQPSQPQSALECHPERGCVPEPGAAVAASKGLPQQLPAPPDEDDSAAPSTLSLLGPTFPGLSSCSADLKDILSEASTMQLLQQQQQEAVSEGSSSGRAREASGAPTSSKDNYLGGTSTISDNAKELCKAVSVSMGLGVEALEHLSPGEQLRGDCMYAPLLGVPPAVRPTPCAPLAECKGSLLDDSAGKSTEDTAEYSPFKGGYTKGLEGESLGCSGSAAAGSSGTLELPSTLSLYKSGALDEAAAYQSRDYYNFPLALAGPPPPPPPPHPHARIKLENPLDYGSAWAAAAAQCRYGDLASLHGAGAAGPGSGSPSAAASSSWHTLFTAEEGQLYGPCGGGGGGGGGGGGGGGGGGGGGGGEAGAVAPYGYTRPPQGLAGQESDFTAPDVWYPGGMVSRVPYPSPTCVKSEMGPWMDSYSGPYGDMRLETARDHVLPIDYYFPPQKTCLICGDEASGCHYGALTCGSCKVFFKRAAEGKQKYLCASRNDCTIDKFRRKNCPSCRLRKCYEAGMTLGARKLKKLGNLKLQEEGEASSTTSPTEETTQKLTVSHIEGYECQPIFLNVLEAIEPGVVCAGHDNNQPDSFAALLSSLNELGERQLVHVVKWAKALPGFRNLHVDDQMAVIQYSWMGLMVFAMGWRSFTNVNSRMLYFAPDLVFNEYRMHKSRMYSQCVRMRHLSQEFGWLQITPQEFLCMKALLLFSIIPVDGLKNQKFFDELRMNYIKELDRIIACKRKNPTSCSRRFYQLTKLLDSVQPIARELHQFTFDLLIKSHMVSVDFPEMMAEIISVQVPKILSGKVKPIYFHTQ
# assayText: Competitive binding of 3H-DHT to baculovirus/Sf9 generated hAR extracts
# conditions: IC50, concentration at which one half of maximum binding of 1 nM 3H-DHT to hAR is inhibited; one hour at 4° C.; mean of multiple tests
quantityName: IC50 (nM)
I only need the number, in nM, no unit after it.

Request: Fill in the recorded IC50 for this compound, with hAR (Homo sapiens) as test system: CC1(C)CN(Cc2ccc3nonc3c2)C(=O)C1Oc1ccc(C#N)c(C(F)(F)F)c1 (stereo not shown) [Example 57]
Result: 31

Request: Let us now turn to CSCN1CC(C)(C)C(Oc2ccc(C#N)c(C(F)(F)F)c2)C1=O (single isomer, unassigned) [Example 100B]
Result: 76

Request: Let us now turn to CC1(C)CN(Cc2ccccc2O)C(=O)C1Oc1ccc(C#N)c(C(F)(F)F)c1 (stereo not shown) [Example 11]
Result: 17
